tested on: Escherichia coli TOP10; experiment: shrunken log2 fold change of peptide-encoding DNA abundance (4.5 h post-induction vs induction); higher = less antimicrobial activity (less host growth inhibition); details: time post-induction: 4.5 h; library: site-saturation at positions 5, 18, 19, 20;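 further: peptides expressed intracellularly from a pBAD plasmid library in pooled LB shake-flask culture, induced with 0.3% L-arabinose, DNA abundance read by NGS, three biological replicates, DESeq2 with apeglm shrinkage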
# if value of shrunken log2 fold change reaches 0.03, tag Criterion met; if it stays below, tag Criterion not met

>>> qualitative_label("RRIRPRPPRLPRPRPRPDGMPRP")
"Criterion not met"
>>> qualitative_label("RRIRDRPPRLPRPRPRPSSKPRP")
"Criterion not met"
>>> qualitative_label("RRIRQRPPRLPRPRPRPYQTPRP")
"Criterion not met"
>>> qualitative_label("RRIRERPPRLPRPRPRPNTNPRP")
"Criterion not met"
>>> qualitative_label("RRIRHRPPRLPRPRPRPPTSPRP")
"Criterion not met"
>>> qualitative_label("RRIRYRPPRLPRPRPRPFFIPRP")
"Criterion not met"
>>> qualitative_label("RRIRRRPPRLPRPRPRPYTIPRP")
"Criterion not met"
>>> qualitative_label("RRIRFRPPRLPRPRPRPHWWPRP")
"Criterion met"
>>> qualitative_label("RRIRKRPPRLPRPRPRPLCVPRP")
"Criterion met"
>>> qualitative_label("RRIRYRPPRLPRPRPRPLTVPRP")
"Criterion not met"
>>> qualitative_label("RRIRSRPPRLPRPRPRPMQNPRP")
"Criterion met"
>>> qualitative_label("RRIRQRPPRLPRPRPRPTWVPRP")
"Criterion met"
>>> qualitative_label("RRIRPRPPRLPRPRPRPKMVPRP")
"Criterion met"
>>> qualitative_label("RRIRARPPRLPRPRPRPISNPRP")
"Criterion not met"
>>> qualitative_label("RRIRARPPRLPRPRPRPPGDPRP")
"Criterion met"
>>> qualitative_label("RRIRCRPPRLPRPRPRPLQRPRP")
"Criterion met"
>>> qualitative_label("RRIRRRPPRLPRPRPRPHNDPRP")
"Criterion met"
>>> qualitative_label("RRIRFRPPRLPRPRPRPMAMPRP")
"Criterion met"
>>> qualitative_label("RRIRDRPPRLPRPRPRPKNLPRP")
"Criterion not met"
>>> qualitative_label("RRIRLRPPRLPRPRPRPSKDPRP")
"Criterion not met"
>>> qualitative_label("RRIRWRPPRLPRPRPRPNGCPRP")
"Criterion met"
>>> qualitative_label("RRIRCRPPRLPRPRPRPYTWPRP")
"Criterion not met"
>>> qualitative_label("RRIRKRPPRLPRPRPRPWADPRP")
"Criterion not met"
>>> qualitative_label("RRIRTRPPRLPRPRPRPDDAPRP")
"Criterion not met"
>>> qualitative_label("RRIRVRPPRLPRPRPRPTFEPRP")
"Criterion not met"
>>> qualitative_label("RRIRHRPPRLPRPRPRPIEKPRP")
"Criterion not met"
>>> qualitative_label("RRIRQRPPRLPRPRPRPYNSPRP")
"Criterion not met"
>>> qualitative_label("RRIRTRPPRLPRPRPRPMNQPRP")
"Criterion not met"
>>> qualitative_label("RRIRERPPRLPRPRPRPPDEPRP")
"Criterion not met"
>>> qualitative_label("RRIRHRPPRLPRPRPRPMNQPRP")
"Criterion not met"
>>> qualitative_label("RRIRTRPPRLPRPRPRPRKGPRP")
"Criterion met"
>>> qualitative_label("RRIRYRPPRLPRPRPRPSVSPRP")
"Criterion not met"
>>> qualitative_label("RRIRNRPPRLPRPRPRPYCGPRP")
"Criterion not met"
>>> qualitative_label("RRIRDRPPRLPRPRPRPKPWPRP")
"Criterion met"
>>> qualitative_label("RRIRERPPRLPRPRPRPCLPPRP")
"Criterion not met"
>>> qualitative_label("RRIRLRPPRLPRPRPRPRQPPRP")
"Criterion met"
>>> qualitative_label("RRIRYRPPRLPRPRPRPVEIPRP")
"Criterion not met"
>>> qualitative_label("RRIRVRPPRLPRPRPRPDDIPRP")
"Criterion not met"
>>> qualitative_label("RRIRDRPPRLPRPRPRPLDVPRP")
"Criterion not met"
>>> qualitative_label("RRIRPRPPRLPRPRPRPRAYPRP")
"Criterion not met"
>>> qualitative_label("RRIRLRPPRLPRPRPRPADAPRP")
"Criterion met"
>>> qualitative_label("RRIRNRPPRLPRPRPRPCALPRP")
"Criterion not met"
>>> qualitative_label("RRIRCRPPRLPRPRPRPYLTPRP")
"Criterion not met"
>>> qualitative_label("RRIRRRPPRLPRPRPRPSAQPRP")
"Criterion met"
>>> qualitative_label("RRIRHRPPRLPRPRPRPGWNPRP")
"Criterion met"
>>> qualitative_label("RRIRIRPPRLPRPRPRPNFKPRP")
"Criterion not met"
>>> qualitative_label("RRIRWRPPRLPRPRPRPWIIPRP")
"Criterion not met"
>>> qualitative_label("RRIRWRPPRLPRPRPRPQPKPRP")
"Criterion met"
>>> qualitative_label("RRIRYRPPRLPRPRPRPECTPRP")
"Criterion not met"
>>> qualitative_label("RRIRNRPPRLPRPRPRPERCPRP")
"Criterion met"
>>> qualitative_label("RRIRYRPPRLPRPRPRPLMCPRP")
"Criterion not met"
>>> qualitative_label("RRIRARPPRLPRPRPRPYPYPRP")
"Criterion not met"
>>> qualitative_label("RRIRVRPPRLPRPRPRPGMTPRP")
"Criterion met"
>>> qualitative_label("RRIRVRPPRLPRPRPRPCQNPRP")
"Criterion not met"
>>> qualitative_label("RRIRNRPPRLPRPRPRPEGEPRP")
"Criterion met"
>>> qualitative_label("RRIRKRPPRLPRPRPRPWSYPRP")
"Criterion not met"
